These measurements were taken from patent EP4741392A1.

Molecular target: BTK C481S (Homo sapiens, UniProt Q06187, C481S)
Sequence (Q06187 whole entry C481S): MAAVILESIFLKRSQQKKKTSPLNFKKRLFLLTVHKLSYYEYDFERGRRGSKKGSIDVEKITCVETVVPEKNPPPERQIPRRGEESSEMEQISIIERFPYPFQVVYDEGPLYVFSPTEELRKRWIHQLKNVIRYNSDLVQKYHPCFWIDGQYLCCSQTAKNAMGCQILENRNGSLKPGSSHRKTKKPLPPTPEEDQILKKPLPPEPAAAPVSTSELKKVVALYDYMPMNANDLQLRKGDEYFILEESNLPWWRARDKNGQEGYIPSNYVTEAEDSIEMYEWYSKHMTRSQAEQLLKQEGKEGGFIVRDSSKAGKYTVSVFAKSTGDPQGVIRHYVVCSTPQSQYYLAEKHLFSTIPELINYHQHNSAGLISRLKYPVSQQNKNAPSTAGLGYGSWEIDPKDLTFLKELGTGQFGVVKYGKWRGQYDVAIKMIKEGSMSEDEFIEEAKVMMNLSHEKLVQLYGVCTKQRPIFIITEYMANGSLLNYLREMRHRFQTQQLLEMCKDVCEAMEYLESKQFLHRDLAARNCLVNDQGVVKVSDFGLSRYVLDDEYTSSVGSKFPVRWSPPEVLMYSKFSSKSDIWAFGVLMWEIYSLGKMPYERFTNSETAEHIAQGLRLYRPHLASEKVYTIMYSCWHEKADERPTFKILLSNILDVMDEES
Assay: Kinase activity inhibition assay (HTRF TK Kit)
pIC50: −log10 of the molar value.
pIC50 values by entry

Looking up COc1ccc(F)cc1C(=O)NCc1ccc(-c2ncc(-c3ncc(C)cn3)c3[nH]nc(N)c23)cc1 , I see its pIC50 listed as ≥ 9.00

Looking up COc1ccc(F)cc1C(=O)NCc1ccc(-c2ncc(-c3ccc(C(F)(F)F)cn3)c3[nH]nc(N)c23)cc1 , I see its pIC50 listed as 7.30 to 8.30

Looking up COc1ccc(F)cc1C(=O)NCc1ccc(-c2ncc(-c3cccnc3)c3[nH]nc(N)c23)cc1 , I see its pIC50 listed as 6.30 to 7.30

Looking up COc1ccc(F)cc1C(=O)NCc1ccc(-c2ncc(-c3ncc(F)cn3)c3[nH]nc(N)c23)cc1 , I see its pIC50 listed as 8.30 to 9.00

Looking up COc1ccc(F)cc1C(=O)NCc1ccc(-c2ncc(-c3nc4ccccc4s3)c3[nH]nc(N)c23)cc1 , I see its pIC50 listed as 7.30 to 8.30

Looking up COc1ccc(F)cc1C(=O)NCc1ccc(-c2ncc(-c3ccc4cn[nH]c4n3)c3[nH]nc(N)c23)cc1 , I see its pIC50 listed as 8.30 to 9.00

Looking up COc1ccc(F)cc1C(=O)NCc1ccc(-c2ncc(-c3cn4ccnc4cn3)c3[nH]nc(N)c23)cc1 , I see its pIC50 listed as 8.30 to 9.00

Looking up COc1ccc(F)cc1C(=O)NCc1ccc(-c2ncc(-c3ccc(N4CCN(C)CC4)cn3)c3[nH]nc(N)c23)cc1 , I see its pIC50 listed as ≥ 9.00

Looking up COc1ccc(F)cc1C(=O)NCc1ccc(-c2ncc(-c3ccc(C(C)(C)O)cn3)c3[nH]nc(N)c23)cc1 , I see its pIC50 listed as 8.30 to 9.00

Looking up COc1ccc(F)cc1C(=O)NCc1ccc(-c2ncc(-c3cc(NC(=O)C4CC4)ccn3)c3[nH]nc(N)c23)cc1 , I see its pIC50 listed as 8.30 to 9.00

* * *

Target: BTK T474I (Homo sapiens, UniProt Q06187, T474I)
Sequence (Q06187 whole entry T474I): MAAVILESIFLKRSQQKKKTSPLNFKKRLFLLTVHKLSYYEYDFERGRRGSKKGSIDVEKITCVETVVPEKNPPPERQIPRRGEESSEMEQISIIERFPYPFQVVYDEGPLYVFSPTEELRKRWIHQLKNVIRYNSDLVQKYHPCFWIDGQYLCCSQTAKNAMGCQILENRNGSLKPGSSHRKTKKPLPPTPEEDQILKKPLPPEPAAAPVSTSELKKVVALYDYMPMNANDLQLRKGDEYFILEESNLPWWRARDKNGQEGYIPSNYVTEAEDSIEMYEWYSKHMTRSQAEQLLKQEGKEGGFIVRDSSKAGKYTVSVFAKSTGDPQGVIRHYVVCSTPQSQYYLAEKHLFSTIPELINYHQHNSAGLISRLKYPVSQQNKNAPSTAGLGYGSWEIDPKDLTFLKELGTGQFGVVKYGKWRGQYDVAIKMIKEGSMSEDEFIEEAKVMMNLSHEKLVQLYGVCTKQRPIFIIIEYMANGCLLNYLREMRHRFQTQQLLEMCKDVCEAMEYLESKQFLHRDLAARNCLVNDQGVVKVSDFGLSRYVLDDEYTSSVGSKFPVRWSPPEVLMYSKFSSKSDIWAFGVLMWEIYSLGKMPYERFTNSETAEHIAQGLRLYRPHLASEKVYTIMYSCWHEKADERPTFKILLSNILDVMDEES
Test: Kinase activity inhibition assay (HTRF TK Kit)
pIC50: −log10 of the molar value.
property.label: pIC50

Worked examples follow.
[[record]]
compound = "COc1ccc(F)cc1C(=O)NCc1ccc(-c2ncc(-c3ccc(N4CCN(C)CC4)cn3)c3[nH]nc(N)c23)cc1"
measured_on = "BTK T474I (Homo sapiens, UniProt Q06187, T474I)"
val = "7.30 to 8.30"

[[record]]
compound = "COc1ccc(F)cc1C(=O)NCc1ccc(-c2ncc(-c3ccc(NC(=O)C4CC4)cn3)c3[nH]nc(N)c23)cc1"
measured_on = "BTK T474I (Homo sapiens, UniProt Q06187, T474I)"
val = "< 6.30"

[[record]]
compound = "COc1ccc(F)cc1C(=O)NCc1ccc(-c2ncc(-c3ccc(C(=O)N4CCOCC4)cn3)c3[nH]nc(N)c23)cc1"
measured_on = "BTK T474I (Homo sapiens, UniProt Q06187, T474I)"
val = "7.30 to 8.30"

[[record]]
compound = "COc1ccc(F)cc1C(=O)NCc1ccc(-c2ncc(-c3ccc(C4COC4)cn3)c3[nH]nc(N)c23)cc1"
measured_on = "BTK T474I (Homo sapiens, UniProt Q06187, T474I)"
val = "7.30 to 8.30"

[[record]]
compound = "COc1ccc(F)cc1C(=O)NCc1ccc(-c2ncc(-c3ccc(F)cn3)c3[nH]nc(N)c23)c(F)c1"
measured_on = "BTK T474I (Homo sapiens, UniProt Q06187, T474I)"
val = "6.30 to 7.30"


Looking up COc1ccc(F)cc1C(=O)NCc1ccc(-c2ncc(-c3nccn4cccc34)c3[nH]nc(N)c23)cc1 , I see its pIC50 listed as 6.30 to 7.30

Looking up COc1ccc(F)cc1C(=O)NCc1ccc(-c2nc([C@H]3CC[C@H](CO)CC3)cc3[nH]nc(N)c23)cc1 , I see its pIC50 listed as 6.30 to 7.30

Looking up COc1ccc(F)cc1C(=O)NCc1ccc(-c2ncc(-c3nc4ccccc4s3)c3[nH]nc(N)c23)cc1 , I see its pIC50 listed as 6.30 to 7.30

Looking up COc1ccc(F)cc1C(=O)NCc1ccc(-c2nc(C(C)C(F)(F)F)cc3[nH]nc(N)c23)cc1 (single isomer, unassigned) [Example 3] , I see its pIC50 listed as 6.30 to 7.30

Looking up COc1ccc(F)cc1C(=O)NCc1ccc(-c2ncc(-c3cnn(C)c3)c3[nH]nc(N)c23)cc1 , I see its pIC50 listed as 6.30 to 7.30

Looking up COc1ccc(F)cc1C(=O)NCc1ccc(-c2ncc(-c3ccc(OC(F)(F)F)cn3)c3[nH]nc(N)c23)cc1 , I see its pIC50 listed as 7.30 to 8.30

Looking up COc1ccc(F)cc1C(=O)NCc1ccc(-c2ncc(-c3ccncn3)c3[nH]nc(N)c23)cc1 , I see its pIC50 listed as 6.30 to 7.30

Looking up COc1ccc(F)cc1C(=O)NCc1ccc(-c2ncc(-c3ncccn3)c3[nH]nc(N)c23)cc1 , I see its pIC50 listed as 6.30 to 7.30

Looking up COc1ccc(F)cc1C(=O)NCc1ccc(-c2ncc(-c3ccc(OCCN(C)C)cn3)c3[nH]nc(N)c23)cc1 , I see its pIC50 listed as 7.30 to 8.30

Looking up COc1ccc(F)cc1C(=O)NCc1ccc(-c2ncc(-c3ncc(F)cn3)c3[nH]nc(N)c23)cc1 , I see its pIC50 listed as 6.30 to 7.30

Looking up COc1ccc(F)cc1C(=O)NCc1ccc(-c2nc(C(C)C(F)(F)F)cc3[nH]nc(N)c23)cc1 (single isomer, unassigned) [Example 2] , I see its pIC50 listed as 6.30 to 7.30

* * *

Molecular target: ITK (Homo sapiens)
Sequence (Q08881 1-620): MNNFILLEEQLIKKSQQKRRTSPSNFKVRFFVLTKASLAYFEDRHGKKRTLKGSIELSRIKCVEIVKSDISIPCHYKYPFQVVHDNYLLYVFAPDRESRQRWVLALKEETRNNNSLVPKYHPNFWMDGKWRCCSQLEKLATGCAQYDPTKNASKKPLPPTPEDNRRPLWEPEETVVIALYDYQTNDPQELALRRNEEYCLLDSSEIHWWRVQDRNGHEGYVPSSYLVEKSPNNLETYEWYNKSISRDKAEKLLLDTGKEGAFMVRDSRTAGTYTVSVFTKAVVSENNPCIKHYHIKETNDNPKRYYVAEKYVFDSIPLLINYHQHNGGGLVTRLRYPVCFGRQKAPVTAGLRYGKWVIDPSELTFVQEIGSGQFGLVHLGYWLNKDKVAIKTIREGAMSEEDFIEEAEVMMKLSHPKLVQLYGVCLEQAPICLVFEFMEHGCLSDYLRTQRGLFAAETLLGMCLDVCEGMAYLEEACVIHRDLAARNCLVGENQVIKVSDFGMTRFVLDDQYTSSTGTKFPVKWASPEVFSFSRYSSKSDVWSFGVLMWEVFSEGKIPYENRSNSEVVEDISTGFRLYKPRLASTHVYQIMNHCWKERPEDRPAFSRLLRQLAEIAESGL
pIC50: −log10 of the molar value.
property.label: pIC50

[[record]]
chem_smiles = "COc1ccc(F)cc1C(=O)NCc1ccc(-c2ncc(-c3ccncc3)c3[nH]nc(N)c23)cc1"
measured_on = "ITK (Homo sapiens)"
val = "< 6.30"

[[record]]
chem_smiles = "COc1ccc(F)cc1C(=O)NCc1ccc(-c2ncc(-c3ccc(N4CCOCC4)cn3)c3[nH]nc(N)c23)cc1"
measured_on = "ITK (Homo sapiens)"
val = "6.30 to 7.30"


Param item: COc1ccc(F)cc1C(=O)NCc1ccc(-c2ncc(-c3ccn4nccc4n3)c3[nH]nc(N)c23)cc1 ; param system: ITK (Homo sapiens); output pIC50: < 6.30

Param item: COc1ccc(F)cc1C(=O)NCc1ccc(-c2ncc(-c3cc4ccccn4n3)c3[nH]nc(N)c23)cc1 ; param system: ITK (Homo sapiens); output pIC50: 6.30 to 7.30

Param item: COc1ccc(F)cc1C(=O)NCc1ccc(-c2ncc(-c3ccc(N4CCN(C)CC4)cn3)c3[nH]nc(N)c23)cc1 ; param system: ITK (Homo sapiens); output pIC50: 6.30 to 7.30

* * *

IC50 values by entry
Test system: Ramos cells with BTK WT
Assay: Phosphor-BTK(Y223) assay, suspended cells
Type: cell-based
Conditions: Homo sapiens, Ramos, phosphorylated BTK Y223, Ramos cells with BTK WT

Worked examples follow.
[[record]]
compound = "COc1ccc(F)cc1C(=O)NCc1ccc(-c2ncc(-c3ccc(C(=O)N4CCOCC4)cn3)c3[nH]nc(N)c23)cc1"
measured_on = "Ramos cells with BTK WT"
val = "≤ 5 nM"

[[record]]
compound = "Nc1n[nH]c2cc(C3CC[S+]([O-])CC3)nc(-c3ccc(CNC(=O)c4cc(F)ccc4O)cc3)c12 (centres unmarked)"
measured_on = "Ramos cells with BTK WT"
val = "10 to 50 nM"

[[record]]
compound = "COc1ccc(F)cc1C(=O)NCc1ccc(-c2ncc(-c3cnn(C)c3)c3[nH]nc(N)c23)cc1"
measured_on = "Ramos cells with BTK WT"
val = "10 to 50 nM"

[[record]]
compound = "COc1ccc(F)cc1C(=O)NCc1ccc(-c2ncc(-c3cccnc3)c3[nH]nc(N)c23)cc1"
measured_on = "Ramos cells with BTK WT"
val = "> 50 nM"

[[record]]
compound = "CCN1CCc2nc(-c3cnc(-c4ccc(CNC(=O)c5cc(F)ccc5OC)cc4)c4c(N)n[nH]c34)sc2C1"
measured_on = "Ramos cells with BTK WT"
val = "≤ 5 nM"

[[record]]
compound = "COc1ccc(F)cc1C(=O)NCc1ccc(-c2ncc(-c3ccc(F)cn3)c3[nH]nc(N)c23)c(C)c1"
measured_on = "Ramos cells with BTK WT"
val = "> 50 nM"

[[record]]
compound = "COc1ccc(F)cc1C(=O)NCc1ccc(-c2ncc(-c3cncnc3)c3[nH]nc(N)c23)cc1"
measured_on = "Ramos cells with BTK WT"
val = "> 50 nM"

[[record]]
compound = "COc1ccc(F)cc1C(=O)NCc1ccc(-c2ncc(-c3ccc(OCCN(C)C)cn3)c3[nH]nc(N)c23)cc1"
measured_on = "Ramos cells with BTK WT"
val = "≤ 5 nM"

[[record]]
compound = "COc1ccc(F)cc1C(=O)NCc1ccc(-c2ncc(-c3cc4cnccn4n3)c3[nH]nc(N)c23)cc1"
measured_on = "Ramos cells with BTK WT"
val = "≤ 5 nM"

[[record]]
compound = "COc1ccc(F)cc1C(=O)NCc1ccc(-c2ncc(-c3ccc(OCCN4CCCC4)cn3)c3[nH]nc(N)c23)cc1"
measured_on = "Ramos cells with BTK WT"
val = "5 to 10 nM"


Let's switch to this compound now.
Looking up COc1ccc(F)cc1C(=O)NCc1ccc(-c2ncc(-c3ccc(C)cn3)c3[nH]nc(N)c23)cc1 , I see its IC50 listed as ≤ 5 nM
